# credit: patent US20230365662A1

Attribute: OD450nm
tested target: HRgpA-6H (Porphyromonas gingivalis) (UniProt P28784)
assay summary: ELISA, FASEBA Fab on coated HRgpA-6H
Reply: number alone, nothing else.

KB001 mouse Fab VL S30L (Fab, V domains shown) VH: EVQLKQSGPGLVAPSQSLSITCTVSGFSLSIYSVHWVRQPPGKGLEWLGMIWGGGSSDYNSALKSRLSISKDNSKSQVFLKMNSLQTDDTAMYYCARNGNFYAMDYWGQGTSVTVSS VL: QIVLTQSPAIMSASLGERVTMTCTASSSVLSSFLHWYQQKPGSSPQLWIYSTSNLASGVPARFSGSGSGTSYSLTISSMEAEDAATYYCHQYHHSPYIYTFGGGTKLEIK : 0.813
KB001 mouse Fab VL N54K (Fab, V domains shown) VH: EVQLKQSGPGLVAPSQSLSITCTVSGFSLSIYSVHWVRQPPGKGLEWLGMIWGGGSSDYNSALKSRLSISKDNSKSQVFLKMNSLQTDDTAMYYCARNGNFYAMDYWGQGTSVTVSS VL: QIVLTQSPAIMSASLGERVTMTCTASSSVSSSFLHWYQQKPGSSPQLWIYSTSKLASGVPARFSGSGSGTSYSLTISSMEAEDAATYYCHQYHHSPYIYTFGGGTKLEIK : 0.727
KB001 mouse Fab VL S57P (Fab, V domains shown) VH: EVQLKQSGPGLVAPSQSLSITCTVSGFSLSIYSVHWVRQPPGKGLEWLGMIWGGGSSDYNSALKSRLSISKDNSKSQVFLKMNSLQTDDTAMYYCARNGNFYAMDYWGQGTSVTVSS VL: QIVLTQSPAIMSASLGERVTMTCTASSSVSSSFLHWYQQKPGSSPQLWIYSTSNLAPGVPARFSGSGSGTSYSLTISSMEAEDAATYYCHQYHHSPYIYTFGGGTKLEIK : 0.858

Exercise: // lookup OD450nm for KB001 mouse Fab VL T24I (Fab, V domains shown) VH: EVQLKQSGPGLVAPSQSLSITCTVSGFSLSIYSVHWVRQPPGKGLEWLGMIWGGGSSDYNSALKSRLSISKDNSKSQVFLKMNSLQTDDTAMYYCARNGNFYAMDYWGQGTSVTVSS VL: QIVLTQSPAIMSASLGERVTMTCIASSSVSSSFLHWYQQKPGSSPQLWIYSTSNLASGVPARFSGSGSGTSYSLTISSMEAEDAATYYCHQYHHSPYIYTFGGGTKLEIK
Solution: 0.741

Exercise: Tell me the measured OD450nm of KB001 mouse Fab VL S28G (Fab, V domains shown) VH: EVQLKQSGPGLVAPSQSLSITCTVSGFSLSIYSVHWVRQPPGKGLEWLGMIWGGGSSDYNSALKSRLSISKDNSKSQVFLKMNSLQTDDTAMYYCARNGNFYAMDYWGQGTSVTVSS VL: QIVLTQSPAIMSASLGERVTMTCTASSGVSSSFLHWYQQKPGSSPQLWIYSTSNLASGVPARFSGSGSGTSYSLTISSMEAEDAATYYCHQYHHSPYIYTFGGGTKLEIK , please.
Solution: 0.818
